biological target: Renin (Homo sapiens); assay: Inhibition of human recombinant renin using DNP-Lys-His-Pro-Phe-His-Leu-Val-Ile-His-D,L-Amp as substrate after 3 hrs by fluorescence analysis
Sequence (P00797 whole entry): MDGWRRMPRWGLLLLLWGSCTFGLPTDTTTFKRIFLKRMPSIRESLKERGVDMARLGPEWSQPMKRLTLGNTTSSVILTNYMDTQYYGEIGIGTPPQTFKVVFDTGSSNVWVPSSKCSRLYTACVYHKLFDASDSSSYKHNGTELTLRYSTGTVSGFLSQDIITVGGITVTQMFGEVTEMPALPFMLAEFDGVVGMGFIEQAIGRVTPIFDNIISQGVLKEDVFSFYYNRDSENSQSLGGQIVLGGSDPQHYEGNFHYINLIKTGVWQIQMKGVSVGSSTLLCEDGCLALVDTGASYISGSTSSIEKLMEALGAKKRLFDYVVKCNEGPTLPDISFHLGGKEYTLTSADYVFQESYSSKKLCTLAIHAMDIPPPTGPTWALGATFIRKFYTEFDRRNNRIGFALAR
recorded_endpoint: IC50 (nM)

>  <mol_smiles>
O[C@]1(c2ccc(F)c(F)c2)CCNC[C@@H]1c1onc(-c2cccc3ccccc23)c1Br

>  <tested_on>
Renin (Homo sapiens)

>  <quantitative_readout>
0.06

$$$$
>  <mol_smiles>
CC(=O)NCCc1ccccc1-c1onc([C@H]2CNCC[C@]2(O)c2ccc(F)c(F)c2)c1Br

>  <tested_on>
Renin (Homo sapiens)

>  <quantitative_readout>
0.27

$$$$
>  <mol_smiles>
CC(=O)NCCc1ccccc1-c1onc([C@H]2CNCC[C@]2(C(N)=O)c2ccc(F)c(F)c2)c1Br

>  <tested_on>
Renin (Homo sapiens)

>  <quantitative_readout>
0.22

$$$$
>  <mol_smiles>
O[C@]1(c2ccc(F)c(F)c2)CCNC[C@@H]1c1onc(-c2ccccc2Cl)c1Br

>  <tested_on>
Renin (Homo sapiens)

>  <quantitative_readout>
1.14

$$$$
>  <mol_smiles>
COC[C@H](C)COCc1ccc([C@@]2(O)CCNC[C@@H]2c2noc(-c3ccccc3CCNC(C)=O)c2Br)cc1

>  <tested_on>
Renin (Homo sapiens)

>  <quantitative_readout>
0.26

$$$$
>  <mol_smiles>
CO[C@]1(c2ccc(F)c(F)c2)CCNC[C@@H]1c1noc(-c2ccccc2CCNC(C)=O)c1Br

>  <tested_on>
Renin (Homo sapiens)

>  <quantitative_readout>
0.17

$$$$
>  <mol_smiles>
CC(=O)NCCc1ccccc1-c1onc([C@H]2CNCC[C@]2(O)c2ccc(F)c(F)c2)c1Cl

>  <tested_on>
Renin (Homo sapiens)

>  <quantitative_readout>
0.73

$$$$
>  <mol_smiles>
CC(=O)NCCc1ccccc1-c1cc([C@H]2CNCC[C@]2(O)c2ccc(F)c(F)c2)no1

>  <tested_on>
Renin (Homo sapiens)

>  <quantitative_readout>
166

$$$$

====

molecular target: Voltage-gated inwardly rectifying potassium channel KCNH2 (Homo sapiens)
Sequence (Q12809 whole entry): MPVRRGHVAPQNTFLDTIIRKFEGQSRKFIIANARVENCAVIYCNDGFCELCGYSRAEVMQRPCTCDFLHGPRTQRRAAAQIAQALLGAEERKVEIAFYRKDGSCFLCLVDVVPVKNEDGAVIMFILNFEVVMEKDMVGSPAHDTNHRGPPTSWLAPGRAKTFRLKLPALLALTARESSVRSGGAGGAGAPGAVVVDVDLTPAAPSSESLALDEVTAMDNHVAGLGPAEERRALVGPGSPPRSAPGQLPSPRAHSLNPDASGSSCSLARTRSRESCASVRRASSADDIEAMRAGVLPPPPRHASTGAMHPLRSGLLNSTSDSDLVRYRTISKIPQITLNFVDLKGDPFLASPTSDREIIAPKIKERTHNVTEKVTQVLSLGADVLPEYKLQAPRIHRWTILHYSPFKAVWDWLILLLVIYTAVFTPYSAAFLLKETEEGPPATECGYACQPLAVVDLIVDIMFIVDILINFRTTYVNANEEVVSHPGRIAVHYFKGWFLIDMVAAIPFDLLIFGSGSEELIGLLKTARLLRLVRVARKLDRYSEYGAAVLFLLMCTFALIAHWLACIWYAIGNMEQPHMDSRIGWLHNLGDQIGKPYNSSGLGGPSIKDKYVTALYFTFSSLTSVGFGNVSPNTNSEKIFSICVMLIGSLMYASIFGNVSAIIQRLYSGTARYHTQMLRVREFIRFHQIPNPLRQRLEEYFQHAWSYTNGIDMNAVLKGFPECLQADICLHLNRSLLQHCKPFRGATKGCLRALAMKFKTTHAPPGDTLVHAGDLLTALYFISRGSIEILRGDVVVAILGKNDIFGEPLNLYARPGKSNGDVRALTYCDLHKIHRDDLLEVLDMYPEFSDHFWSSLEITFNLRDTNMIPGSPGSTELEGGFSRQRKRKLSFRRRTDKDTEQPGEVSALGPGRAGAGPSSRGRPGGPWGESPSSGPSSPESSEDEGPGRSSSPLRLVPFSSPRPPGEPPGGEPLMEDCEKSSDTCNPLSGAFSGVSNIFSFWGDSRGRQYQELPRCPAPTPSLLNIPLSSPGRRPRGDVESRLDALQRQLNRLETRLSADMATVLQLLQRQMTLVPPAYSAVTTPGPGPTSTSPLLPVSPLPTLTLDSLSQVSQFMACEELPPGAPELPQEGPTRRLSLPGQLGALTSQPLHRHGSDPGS
I'd appreciate it if you marked entries class 1 when Ki is lower than 10 µM and class 0 when it is not.

>  <molecule>
Cc1cccc(-c2noc([C@H]3CNCC[C@]3(O)c3ccc(F)c(F)c3)c2Br)c1C

>  <assigned_class>
class 1

$$$$
>  <molecule>
CC(=O)NCCc1ccccc1-c1onc([C@H]2CNCC[C@@H]2c2ccc(F)c(F)c2)c1Br

>  <assigned_class>
class 0

$$$$
>  <molecule>
CC(=O)NCCc1ccccc1-c1onc([C@H]2CNCC[C@]2(C(N)=O)c2ccc(F)c(F)c2)c1Br

>  <assigned_class>
class 0

$$$$
>  <molecule>
O[C@]1(c2ccc(F)c(F)c2)CCNC[C@@H]1c1onc(-c2cccc3ccccc23)c1Br

>  <assigned_class>
class 1

$$$$
>  <molecule>
CC(=O)NCCc1ccccc1-c1onc([C@H]2CNCC[C@]2(OCC(O)CO)c2ccc(F)c(F)c2)c1Br (stereo not given in full)

>  <assigned_class>
class 0

$$$$
>  <molecule>
O[C@]1(c2ccc(F)c(F)c2)CCNC[C@@H]1c1cc(-c2ccc(F)cc2Br)no1

>  <assigned_class>
class 1

$$$$
>  <molecule>
COC[C@H](C)COCc1ccc([C@@]2(O)CCNC[C@@H]2c2noc(-c3ccccc3CCNC(C)=O)c2Br)cc1

>  <assigned_class>
class 0

$$$$
>  <molecule>
O[C@]1(c2ccc(F)c(F)c2)CCNC[C@@H]1c1cc(-c2c(Cl)cccc2Cl)no1

>  <assigned_class>
class 1

$$$$
>  <molecule>
O[C@]1(c2ccc(F)c(F)c2)CCNC[C@@H]1c1onc(-c2c(Cl)cccc2Cl)c1Br

>  <assigned_class>
class 1

$$$$

====

target: UniProt P08684; assay: Reversible inhibition of CYP3A4-mediated conversion of testosterone to 6-beta-hydroxy-testosterone after 30 mins; format: ADME

>  <mol_smiles>
CC(=O)NCCc1cc(F)ccc1-c1onc([C@H]2CNCC[C@]2(O)c2ccc(F)c(F)c2)c1Br

>  <tested_on>
UniProt P08684

>  <result_operator>
=

>  <IC50 / µM>
45

$$$$
>  <mol_smiles>
O[C@]1(c2ccc(F)c(F)c2)CCNC[C@@H]1c1cc(-c2c(Cl)cccc2Cl)on1

>  <tested_on>
UniProt P08684

>  <result_operator>
=

>  <IC50 / µM>
17

$$$$
>  <mol_smiles>
CC(=O)NCCc1ccccc1-c1ccc([C@H]2CNCC[C@@H]2c2ccc(F)c(F)c2)c(Cl)c1

>  <tested_on>
UniProt P08684

>  <result_operator>
=

>  <IC50 / µM>
20

$$$$
>  <mol_smiles>
CC(=O)NCCc1ccccc1-c1cc([C@H]2CNCC[C@]2(O)c2ccc(F)c(F)c2)no1

>  <tested_on>
UniProt P08684

>  <result_operator>
=

>  <IC50 / µM>
32

$$$$
>  <mol_smiles>
CC(=O)NCCc1ccccc1-c1onc([C@H]2CNCC[C@]2(O)c2ccc(F)c(F)c2)c1Cl

>  <tested_on>
UniProt P08684

>  <result_operator>
>

>  <IC50 / µM>
50

$$$$
>  <mol_smiles>
O[C@]1(c2ccc(F)c(F)c2)CCNC[C@@H]1c1onc(-c2cccc3ccccc23)c1Br

>  <tested_on>
UniProt P08684

>  <result_operator>
>

>  <IC50 / µM>
50

$$$$
>  <mol_smiles>
O[C@]1(c2ccc(F)c(F)c2)CCNC[C@@H]1c1onc(-c2ccccc2Cl)c1Br

>  <tested_on>
UniProt P08684

>  <result_operator>
=

>  <IC50 / µM>
18

$$$$
>  <mol_smiles>
CC(=O)NCCc1ccccc1-c1onc([C@H]2CNCC[C@]2(O)c2ccc(F)c(F)c2)c1C(C)=O

>  <tested_on>
UniProt P08684

>  <result_operator>
=

>  <IC50 / µM>
8

$$$$
>  <mol_smiles>
CO[C@]1(c2ccc(F)c(F)c2)CCNC[C@@H]1c1noc(-c2ccccc2CCNC(C)=O)c1Br

>  <tested_on>
UniProt P08684

>  <result_operator>
=

>  <IC50 / µM>
28

$$$$

====

Overview of reported clearance across a group of compounds:
assay: Clearance in Sprague-Dawley rat at 3 mg/kg, po and 0.5 mg/kg, iv; type: ADME, organism-based; details: in vivo

>  <compound>
CC(=O)NCCc1ccccc1-c1onc([C@H]2CNCC[C@]2(O)c2ccc(F)c(F)c2)c1Br

>  <result_units>
mL/min/kg

>  <clearance>
108

$$$$
>  <compound>
COC[C@H](C)COCc1ccc([C@@]2(O)CCNC[C@@H]2c2noc(-c3ccccc3CCNC(C)=O)c2Br)cc1

>  <result_units>
mL/min/kg

>  <clearance>
124

$$$$
>  <compound>
CC(=O)NCCc1ccccc1-c1onc([C@H]2CNCC[C@]2(OCC(O)CO)c2ccc(F)c(F)c2)c1Br (stereo partly drawn)

>  <result_units>
mL/min/kg

>  <clearance>
70

$$$$

====

// values below are reported inhibition at 10 µM
target: CYP3A4 (Homo sapiens, UniProt P08684); experiment: Inhibition of CYP3A4 assessed as time dependent inhibition of conversion of testosterone to 6-beta-hydroxy-testosterone at 10 uM; type: ADME; details: probe testosterone
Sequence (P08684 whole entry): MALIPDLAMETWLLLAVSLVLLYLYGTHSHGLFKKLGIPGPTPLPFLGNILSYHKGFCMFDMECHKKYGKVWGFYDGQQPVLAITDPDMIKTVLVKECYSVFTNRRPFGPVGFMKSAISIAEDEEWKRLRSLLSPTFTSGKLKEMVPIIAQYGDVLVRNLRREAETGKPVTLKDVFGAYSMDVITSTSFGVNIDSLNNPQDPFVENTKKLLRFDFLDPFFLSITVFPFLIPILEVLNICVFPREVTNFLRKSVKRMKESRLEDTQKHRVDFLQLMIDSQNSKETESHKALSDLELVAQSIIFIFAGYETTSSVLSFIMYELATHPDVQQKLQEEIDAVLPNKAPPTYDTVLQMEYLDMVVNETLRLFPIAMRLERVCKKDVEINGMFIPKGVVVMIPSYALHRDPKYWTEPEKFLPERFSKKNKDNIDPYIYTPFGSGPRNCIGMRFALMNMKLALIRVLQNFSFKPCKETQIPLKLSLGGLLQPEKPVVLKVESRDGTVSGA
recorded_endpoint: inhibition at 10 µM

>  <molecule>
O[C@]1(c2ccc(F)c(F)c2)CCNC[C@@H]1c1onc(-c2cccc(Cl)c2Cl)c1Br

>  <recorded_endpoint>
inhibition at 10 µM

>  <result>
60%

$$$$
>  <molecule>
O[C@]1(c2ccc(F)c(F)c2)CCNC[C@@H]1c1cc(-c2c(Cl)cccc2Cl)on1

>  <recorded_endpoint>
inhibition at 10 µM

>  <result>
60%

$$$$
>  <molecule>
O[C@]1(c2ccc(F)c(F)c2)CCNC[C@@H]1c1onc(-c2ccccc2Cl)c1Br

>  <recorded_endpoint>
inhibition at 10 µM

>  <result>
76%

$$$$
>  <molecule>
CC(=O)NCCc1cc(F)ccc1-c1onc([C@H]2CNCC[C@]2(O)c2ccc(F)c(F)c2)c1Br

>  <recorded_endpoint>
inhibition at 10 µM

>  <result>
78%

$$$$
>  <molecule>
O[C@]1(c2ccc(F)c(F)c2)CCNC[C@@H]1c1cc(-c2ccc(F)cc2Cl)no1

>  <recorded_endpoint>
inhibition at 10 µM

>  <result>
36%

$$$$
>  <molecule>
CC(=O)NCCc1ccccc1-c1onc([C@H]2CNCC[C@]2(OCC(O)CO)c2ccc(F)c(F)c2)c1Br (stereo not given in full)

>  <recorded_endpoint>
inhibition at 10 µM

>  <result>
18%

$$$$
>  <molecule>
CC(=O)NCCc1ccccc1-c1onc([C@H]2CNCC[C@]2(O)c2ccc(F)c(F)c2)c1C(C)=O

>  <recorded_endpoint>
inhibition at 10 µM

>  <result>
32%

$$$$
>  <molecule>
CC(=O)NCCc1ccccc1-c1onc([C@H]2CNCC[C@]2(O)c2ccc(F)c(F)c2)c1Br

>  <recorded_endpoint>
inhibition at 10 µM

>  <result>
68%

$$$$
>  <molecule>
O[C@]1(c2ccc(F)c(F)c2)CCNC[C@@H]1c1cc(-c2ccc(F)cc2Br)no1

>  <recorded_endpoint>
inhibition at 10 µM

>  <result>
22%

$$$$
>  <molecule>
CC(=O)NCCc1ccccc1-c1onc([C@H]2CNCC[C@]2(O)c2ccc(F)c(F)c2)c1Cl

>  <recorded_endpoint>
inhibition at 10 µM

>  <result>
74%

$$$$
>  <molecule>
O[C@]1(c2ccc(F)c(F)c2)CCNC[C@@H]1c1onc(-c2cccc3ccccc23)c1Br

>  <recorded_endpoint>
inhibition at 10 µM

>  <result>
67%

$$$$
>  <molecule>
CC(=O)NCCc1ccccc1-c1cc([C@H]2CNCC[C@]2(O)c2ccc(F)c(F)c2)no1

>  <recorded_endpoint>
inhibition at 10 µM

>  <result>
21%

$$$$
>  <molecule>
COC[C@H](C)COCc1ccc([C@@]2(O)CCNC[C@@H]2c2noc(-c3ccccc3CCNC(C)=O)c2Br)cc1

>  <recorded_endpoint>
inhibition at 10 µM

>  <result>
10%

$$$$
>  <molecule>
CC(=O)NCCc1ccccc1-c1noc([C@H]2CNCC[C@]2(O)c2ccc(F)c(F)c2)c1Br

>  <recorded_endpoint>
inhibition at 10 µM

>  <result>
74%

$$$$
>  <molecule>
CO[C@]1(c2ccc(F)c(F)c2)CCNC[C@@H]1c1noc(-c2ccccc2CCNC(C)=O)c1Br

>  <recorded_endpoint>
inhibition at 10 µM

>  <result>
60%

$$$$
>  <molecule>
CC(=O)NCCc1ccccc1-c1onc([C@H]2CNCC[C@]2(O)c2ccc(F)c(F)c2)c1C(C)O (stereo not given in full)

>  <recorded_endpoint>
inhibition at 10 µM

>  <result>
48%

$$$$
>  <molecule>
O[C@]1(c2ccc(F)c(F)c2)CCNC[C@@H]1c1onc(-c2c(Cl)cccc2Cl)c1Br

>  <recorded_endpoint>
inhibition at 10 µM

>  <result>
82%

$$$$
>  <molecule>
Cc1cccc(-c2noc([C@H]3CNCC[C@]3(O)c3ccc(F)c(F)c3)c2Br)c1C

>  <recorded_endpoint>
inhibition at 10 µM

>  <result>
77%

$$$$
>  <molecule>
O[C@]1(c2ccc(F)c(F)c2)CCNC[C@@H]1c1cc(-c2c(Cl)cccc2Cl)no1

>  <recorded_endpoint>
inhibition at 10 µM

>  <result>
59%

$$$$
>  <molecule>
CC(=O)NCCc1ccccc1-c1onc([C@H]2CNCC[C@@H]2c2ccc(F)c(F)c2)c1Br

>  <recorded_endpoint>
inhibition at 10 µM

>  <result>
75%

$$$$
